Items are presented alongside their recorded TGI.
# Tested on: NCI/ADR-RES ovarian
# Experiment notes: NCI tumour cell line growth inhibition, 48 h

Prompt: Read the entry "O=C(/C=C/C=C/c1ccccc1)c1ccc(Nc2nc(Nc3ccccc3)nc(Nc3ccccc3)n2)cc1" and write its reported TGI.
Response: > 100 µM

====

# System: HCT-116 colon
# Experiment notes: NCI tumour cell line growth inhibition, 48 h
Value kind: TGI

Use the examples below as a reference point.
>>> df
                                   compound  value_kind  reported_value
0               Cc1nc2c(=O)[nH]c3ccccc3c2o1         TGI        > 100 µM
1  COc1ccc(N2C(=O)CSC2c2cc3cc(Br)ccc3nc2Cl)cc1 (centres undefined)         TGI         > 50 µM
2  O=C1OC(c2ccccc2)C2CC3CC4(CCC3CN12)OCCO4 (centres undefined)         TGI        > 100 µM

# context switch: different compound, same TGI
Prompt: Under HCT-116 colon: report TGI of "O=c1c2c(sc3ccccc13)NCN(CCc1ccccc1)C2" .
Response: > 100 µM
